System: A549
procedure-summary: Antiproliferative activity against human A549 cells after 48 hrs by SRB assay
Format: functional
test-conditions: A549, 48 h

| smiles-data | target-of-assay | readout-unit | GI50 |
| --- | --- | --- | --- |
| COc1ccc(C[C@@H](O)c2cc(OC)c(OC)c(OC)c2)cc1O | A549 | nM | 10 |
| Cc1cc2c(cc1C)C(Cl)=C(c1n[nH]c(=S)o1)CCC2 | A549 | nM | 3270 |
| O=C(NNC(=S)Nc1ccccc1)C1=C(Cl)c2ccccc2CCC1 | A549 | nM | 4880 |
| ClC1=C(c2nnc(-c3ccccc3)o2)CCCc2ccccc21 | A549 | nM | 2270 |

The reported measurements were obtained from ChEMBL document CHEMBL3400038.
